test system: XIP peptide (Xip251-270) binding; assay: small-molecule binders of XIP peptide, primary screen, biochemical, small-molecule microarray, fluorescence 635/667 nm, 0.1 µg/mL protein (AID 1182); settings: fluorescent protein binding, 635 nm, higher = more signal, called active from +8 up or from −8 down
Returns MET if the recorded composite z-score is greater than or equal to 0.3, and NOT MET otherwise.

Test whether the compound CC(C)[Si](OCCCNS(=O)(=O)c1ccc(Br)cc1)(C(C)C)C(C)C records composite z-score of 0.3 or higher. NOT MET

Test whether the compound Cc1cc(C)c(C(O)C2C=CC3C(=O)N(C)C(=O)C3N2N2CCCCC2)c(C)c1 (configuration not stated) records composite z-score of 0.3 or higher. NOT MET

Test whether the compound COc1cccc([C@@H]2[C@@H](C)CC[C@H]3C(=O)N4[C@H](c5cccc(OC)c5)[C@@H](C)CC[C@H]4C(=O)N23)c1 records composite z-score of 0.3 or higher. NOT MET

Test whether the compound COC(=O)[C@@]1(Cc2ccccc2CN=[N+]=[N-])N=C(c2ccc(OCCCO)cc2)O[C@H]1c1ccccc1N=[N+]=[N-] records composite z-score of 0.3 or higher. MET

Test whether the compound CO[C@H]1O[C@H](CO)[C@@H](OC(=O)Nc2ccc(Oc3ccccc3)cc2)[C@H](OC(=O)Nc2ccccc2-c2ccccc2)[C@H]1OC(=O)Nc1ccccc1-c1ccccc1 records composite z-score of 0.3 or higher. MET

Test whether the compound C=CCC(OC(C)=O)[C@@H]1[C@@H](N(Cc2cccc3ccccc23)C(=O)c2ccc(C)cc2)c2cc(OCCCO)ccc2N1C(=O)c1ccc(-c2ccccc2)cc1 (some centres not stated) records composite z-score of 0.3 or higher. NOT MET

Test whether the compound CO[C@@H]1COC(=O)[C@@H]2CCCN2C(=O)CC=C[C@@H](C)[C@H](OC)COC(=O)[C@@H]2CCCN2C(=O)CC=C[C@H]1C records composite z-score of 0.3 or higher. NOT MET
